Target: Monoglyceride lipase (Homo sapiens) (UniProt Q99685)
Sequence (Q99685 whole entry): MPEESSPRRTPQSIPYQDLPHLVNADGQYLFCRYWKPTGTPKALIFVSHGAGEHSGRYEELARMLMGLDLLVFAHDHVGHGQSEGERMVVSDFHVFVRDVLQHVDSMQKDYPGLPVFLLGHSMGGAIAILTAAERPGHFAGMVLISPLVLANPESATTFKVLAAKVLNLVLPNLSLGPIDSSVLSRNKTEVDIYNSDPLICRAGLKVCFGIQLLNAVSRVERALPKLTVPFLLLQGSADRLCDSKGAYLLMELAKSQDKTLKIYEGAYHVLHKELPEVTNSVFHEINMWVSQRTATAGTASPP
Assay: Inhibition of human recombinant MAGL-mediated 1,3-dihydroxypropan-1-yl 4-pyren-1-ylbutanoate conversion to 4-pyren-1-ylbutanoic acid at 10 uM preincubated for 15 mins measured after 45 mins by HPLC analysis relative to control
Active and inactive are the calls of the source. The calls are words filed in the database; no cut-off is given here.
MEASURED_QUANTITY: inhibition

MOLECULE	RECORDED_MEASUREMENT
O=C(NC1CCCCC1)N1CC(c2ccc(Oc3ccccc3)cc2)OC1=O (stereo not drawn)	inactive
O=c1[nH]c(-c2ccc(Oc3ccccc3)cc2)no1	inactive
O=C1C=CC(=O)N1Cc1ccc(Oc2ccccc2)cc1	44%
O=C1NCC(c2ccc(Oc3ccccc3)cc2)O1 (stereo not drawn)	inactive
O=C1N=C(O)S/C1=C\c1ccc(Oc2ccccc2)cc1	inactive
CC(C)N(C(=O)n1nnc(-c2ccc(Oc3ccccc3)cc2)n1)C(C)C	inactive
CCCCC/C=C\C/C=C\C/C=C\C/C=C\CCCCN1C(=O)C=CC1=O	inactive
O=C(CCCCCc1ccccc1)c1nc2ncccc2o1	inactive

###

// UniProtKB P97612 log10 IC50 records
MEASURED_QUANTITY: log10 IC50 (log10 of the value in nM)

COMPOUND_STRUCTURE_STRING	log10 IC50
CN(C)C(=O)n1nnc(-c2ccc(Cn3ccc4ccccc43)cc2)n1	1.94
CCN(CC)C(=O)n1nnc(-c2ccc(Oc3ccccc3)cc2)n1	1.57
COc1nn(-c2ccc(Oc3ccccc3)cc2)c(=O)o1	2.86
Cc1cc(C(=O)C(C)(C)C)c(C)n1-c1ccc(-c2nnn(C(=O)N(C)C)n2)cc1	1.46
CN(C)C(=O)n1nnc(-c2ccc(-n3cccc3)cc2)n1	0.70
COc1nn(-c2ccc(NC(=O)OCc3ccccc3)c(C)c2)c(=O)o1	3.11

###

Reported pIC50 values for the following compounds.
Biological target: Fatty-acid amide hydrolase 1 (Rattus norvegicus, UniProt P97612)
Sequence (P97612 whole entry): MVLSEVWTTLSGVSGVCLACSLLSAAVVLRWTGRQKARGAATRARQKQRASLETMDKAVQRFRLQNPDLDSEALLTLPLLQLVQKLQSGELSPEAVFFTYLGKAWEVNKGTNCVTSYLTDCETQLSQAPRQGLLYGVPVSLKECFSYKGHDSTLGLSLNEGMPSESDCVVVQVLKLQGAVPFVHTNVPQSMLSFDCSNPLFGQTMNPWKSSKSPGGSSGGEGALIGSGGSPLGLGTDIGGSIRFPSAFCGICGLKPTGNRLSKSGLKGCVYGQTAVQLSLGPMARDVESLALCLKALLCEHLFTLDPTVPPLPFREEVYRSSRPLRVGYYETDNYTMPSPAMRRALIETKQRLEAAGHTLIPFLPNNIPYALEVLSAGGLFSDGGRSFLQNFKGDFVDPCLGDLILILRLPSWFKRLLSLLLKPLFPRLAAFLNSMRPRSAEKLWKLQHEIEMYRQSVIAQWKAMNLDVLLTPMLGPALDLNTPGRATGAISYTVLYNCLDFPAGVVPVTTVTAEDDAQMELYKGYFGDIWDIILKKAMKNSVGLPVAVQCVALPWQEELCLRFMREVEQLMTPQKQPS
pIC50: −log10 of the molar value.
MEASURED_QUANTITY: pIC50

COMPOUND_STRUCTURE_STRING	RECORDED_MEASUREMENT
Cc1cc(C(=O)c2ccc(-c3ccccc3)cc2)c(C)n1-c1ccc(-c2nnn(C(=O)N(C)C)n2)cc1	7.40
CCCCCC(=O)c1cc(C)n(-c2ccc(-c3nnn(C(=O)N(C)C)n3)cc2)c1C	7.96
CN(C)C(=O)n1nnc(Cc2ccc(Oc3ccccc3)cc2)n1	8.05
CN(C)C(=O)n1nnc(-c2ccc(Oc3cccc(Cl)c3)cc2)n1	8.05
Cc1cccc(Oc2ccc(-c3nnn(C(=O)N(C)C)n3)cc2)c1	7.89
CN(C)C(=O)n1nnc(-c2ccc(-n3ccc4ccccc43)cc2)n1	7.92

###

Target: Monoglyceride lipase (Rattus norvegicus, UniProt Q8R431)
Sequence (Q8R431 whole entry): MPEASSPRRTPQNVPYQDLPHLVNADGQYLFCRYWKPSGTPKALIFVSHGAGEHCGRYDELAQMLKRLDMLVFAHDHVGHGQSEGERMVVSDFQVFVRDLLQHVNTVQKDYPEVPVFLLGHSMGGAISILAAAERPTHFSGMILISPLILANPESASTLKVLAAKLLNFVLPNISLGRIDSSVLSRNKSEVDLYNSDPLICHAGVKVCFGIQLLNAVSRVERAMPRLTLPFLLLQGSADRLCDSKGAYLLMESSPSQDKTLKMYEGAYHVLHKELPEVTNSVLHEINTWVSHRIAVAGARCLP
Test: Inhibition of rat MAGL expressed in monkey COS7 cells
Assay type: cell-based, COS-7
pIC50: −log10 of the molar value.

COMPOUND_STRUCTURE_STRING	SYSTEM	pIC50
O=C(Oc1ccc([N+](=O)[O-])cc1)N1CCC(C(O)(c2ccc3c(c2)OCO3)c2ccc3c(c2)OCO3)CC1	Monoglyceride lipase (Rattus norvegicus, UniProt Q8R431)	7.60

###

Molecular target: Fatty-acid amide hydrolase 1 (Rattus norvegicus)
Assay: Inhibition of FAAH in Sprague-Dawley rat brain microsomes assessed as N-(2-hydroxyethyl)-4-pyren-1-ylbutanamide conversion to 4-pyren-1-ylbutanoic acid at 10 uM preincubated for 10 mins measured after 45 mins by HPLC analysis relative to control
Activity calls are given as the source filed them. The calls are words filed in the database; no cut-off is given here.

COMPOUND	inhibition
CC(C)N(C(=O)n1nnc(-c2ccc(Oc3ccccc3)cc2)n1)C(C)C	17%
O=C(NC1CCCCC1)N1CC(c2ccc(Oc3ccccc3)cc2)OC1=O (configuration not stated)	inactive
CCCCC/C=C\C/C=C\C/C=C\C/C=C\CCCCN1C(=O)C=CC1=O	38%
O=c1[nH]c(-c2ccc(Oc3ccccc3)cc2)no1	inactive
O=C1NCC(c2ccc(Oc3ccccc3)cc2)O1 (configuration not stated)	inactive
O=C1N=C(O)S/C1=C\c1ccc(Oc2ccccc2)cc1	inactive
O=C(Oc1ccc([N+](=O)[O-])cc1)N1CCC(C(O)(c2ccc3c(c2)OCO3)c2ccc3c(c2)OCO3)CC1	inactive
